Test system: HCT-116 colon
test_name: NCI tumour cell line growth inhibition, 48 h
Quick rule: TGI of at least 20 µM means Y, below that means N.

Kindly determine if TGI recorded for OC1(c2ccccc2)CC2CCC(C1)N2CCCC(O)(c1ccccc1)c1ccccc1 (stereo not given) is above or exactly 20 µM.
Y

Kindly determine if TGI recorded for `CN(C)c1ccc(/C=C/C(=O)c2ccc(Nc3nc(Nc4ccc(F)cc4)nc(Nc4ccc(F)cc4)n3)cc2)cc1` is above or exactly 20 µM.
Y

Kindly determine if TGI recorded for `COc1cc(/C=C/C(=O)c2cccc3ccccc23)cc(OC)c1OC` is above or exactly 20 µM.
N

***
Kindly determine if TGI recorded for CC(=O)OC1C[C@H]2C(OC(=O)c3ccccc3)C3C4(OC(C)=O)COC4C[C@H](OC(C)=O)[C@@]3(C)C(OC(C)=O)[C@H](OC(C)=O)C(=C1C)C2(C)C (stereo not given in full) is above or exactly 20 µM.
Y

Kindly determine if TGI recorded for CC(NC(=O)Cc1ccc(OP(=O)(OCc2ccc([N+](=O)[O-])o2)N(C)CCCCCl)cc1)c1ccc(OCC2CCCCC2)c(C(N)=O)c1 (stereo not given) is above or exactly 20 µM.
N

Kindly determine if TGI recorded for `C/C(=C1/N=C(c2cc([N+](=O)[O-])ccc2Cl)N(c2ccc(Br)cc2)C1=O)c1ccc(N(CCC#N)CCC#N)cc1C` is above or exactly 20 µM.
Y

Kindly determine if TGI recorded for `CC(=O)NNc1nc(C)c(C(=O)NNC(=O)C(=O)Nc2ccc(Cl)c([N+](=O)[O-])c2)s1` is above or exactly 20 µM.
Y

Kindly determine if TGI recorded for COC(=O)C(=O)C(CC(=O)Nc1cc(Cl)ccc1Cl)C(=O)OC (stereo not given) is above or exactly 20 µM.
Y

Kindly determine if TGI recorded for CN(C(=O)[C@H](NC(=O)OCc1ccccc1)c1ccccc1)C1CCCCC1N1CCCC1 (stereo not given in full) is above or exactly 20 µM.
Y

Kindly determine if TGI recorded for `CC(=O)Nc1ccc(-c2nnc(SCC(=O)Nc3cccc(C)c3)o2)cc1` is above or exactly 20 µM.
Y

Kindly determine if TGI recorded for `COc1ccc(-c2nn(-c3cccc(Cl)c3)cc2/C=C2\NC(=S)N(c3ccc(Cl)cc3)C2=O)cc1` is above or exactly 20 µM.
N

Kindly determine if TGI recorded for `O=Cc1c2c(cc3c1CC1(C3)Cc3cc4c(c(C=O)c3C1)CCCC4)CCCC2` is above or exactly 20 µM.
Y

Kindly determine if TGI recorded for `O=C1c2ccccc2N=C(c2cc3c(cc2Cl)Sc2nccn2S3(=O)=O)OS(=O)(=O)N1c1ccccc1` is above or exactly 20 µM.
Y

Kindly determine if TGI recorded for CCN(CC)CC1CCCCN1CC(=O)N1c2cc(Cl)ccc2NC(=O)CC1C (stereo not given) is above or exactly 20 µM.
Y

Kindly determine if TGI recorded for O=C(Nc1cccc(C(F)(F)F)c1)C(=O)C(C(=O)c1ccc(Cl)c(Cl)c1)C1OC(=O)c2ccccc21 (stereo not given) is above or exactly 20 µM.
Y

Kindly determine if TGI recorded for `N#C/C(=C\c1ccc(O)c(O)c1)C(=O)NCc1ccc(C(F)(F)F)cc1` is above or exactly 20 µM.
N

The measurements presented in this section are drawn from PubChem BioAssay (NCI).
